Values from the NIST ThermoML archive (doi:10.1021/je200800f)

- experimental-conditions: Crystal; DTA
observed-property: Normal melting temperature (°C)
Numbers only, in °C.

Guide cases for Normal melting temperature, answers given:
# input Consider the compound O=C(O)CCCC(=O)O [1,5-pentanedioic acid] . State its measured Normal melting temperature.
# output 96.0

# input Hello, please tell me recorded Normal melting temperature for this one: O=C(O)CCCCCC(=O)O [1,7-heptanedioic acid]
# output 104.2

# input Identify the reported Normal melting temperature for the following entry. O=C(O)CCCCC(=O)O [1,6-hexanedioic acid]
# output 153.2

Next:
# input Provide Normal melting temperature value for the following compound: CC(C(=O)O)C(C)C(=O)O (centres undefined) [2,3-dimethyl-1,4-butanedioic acid]
# output 119.4

====

Hi there, I'd appreciate the recorded Molar enthalpy of transition or fusion for every entry that follows.
- protocol-details: Molar enthalpy of transition or fusion
- experimental-conditions: Crystal; DSC
Give bare numbers, in kcal/mol.

# input Please supply the value of reported Molar enthalpy of transition or fusion for the item CC(CC(=O)O)CC(=O)O [3-methylpentanedioic acid]
# output 7.39

# input Note Molar enthalpy of transition or fusion for the compound shown: O=C(O)CCCCC(=O)O [1,6-hexanedioic acid]
# output 8.41

# input Please report Molar enthalpy of transition or fusion for the following compound: CC(C(=O)O)C(C)C(=O)O (stereo unspecified) [2,3-dimethyl-1,4-butanedioic acid]
# output 4.04

# input Quickly give me recorded Molar enthalpy of transition or fusion for O=C(O)CCCCCC(=O)O [1,7-heptanedioic acid]
# output 6.88

# input Given CC(C)(CC(=O)O)C(=O)O [2,2-dimethyl-1,4-butanedioic acid] , respond with its Molar enthalpy of transition or fusion.
# output 9.11

--- query ---
# input Report measured Molar enthalpy of transition or fusion; entry is O=C(O)CCCC(=O)O [1,5-pentanedioic acid]
# output 5.14
